# target.or.system: Serine/threonine-protein kinase ULK1 (Homo sapiens, UniProt O75385); also: in the data inactive means no Kd found up to 30 µM
# Sequence (O75385 whole entry): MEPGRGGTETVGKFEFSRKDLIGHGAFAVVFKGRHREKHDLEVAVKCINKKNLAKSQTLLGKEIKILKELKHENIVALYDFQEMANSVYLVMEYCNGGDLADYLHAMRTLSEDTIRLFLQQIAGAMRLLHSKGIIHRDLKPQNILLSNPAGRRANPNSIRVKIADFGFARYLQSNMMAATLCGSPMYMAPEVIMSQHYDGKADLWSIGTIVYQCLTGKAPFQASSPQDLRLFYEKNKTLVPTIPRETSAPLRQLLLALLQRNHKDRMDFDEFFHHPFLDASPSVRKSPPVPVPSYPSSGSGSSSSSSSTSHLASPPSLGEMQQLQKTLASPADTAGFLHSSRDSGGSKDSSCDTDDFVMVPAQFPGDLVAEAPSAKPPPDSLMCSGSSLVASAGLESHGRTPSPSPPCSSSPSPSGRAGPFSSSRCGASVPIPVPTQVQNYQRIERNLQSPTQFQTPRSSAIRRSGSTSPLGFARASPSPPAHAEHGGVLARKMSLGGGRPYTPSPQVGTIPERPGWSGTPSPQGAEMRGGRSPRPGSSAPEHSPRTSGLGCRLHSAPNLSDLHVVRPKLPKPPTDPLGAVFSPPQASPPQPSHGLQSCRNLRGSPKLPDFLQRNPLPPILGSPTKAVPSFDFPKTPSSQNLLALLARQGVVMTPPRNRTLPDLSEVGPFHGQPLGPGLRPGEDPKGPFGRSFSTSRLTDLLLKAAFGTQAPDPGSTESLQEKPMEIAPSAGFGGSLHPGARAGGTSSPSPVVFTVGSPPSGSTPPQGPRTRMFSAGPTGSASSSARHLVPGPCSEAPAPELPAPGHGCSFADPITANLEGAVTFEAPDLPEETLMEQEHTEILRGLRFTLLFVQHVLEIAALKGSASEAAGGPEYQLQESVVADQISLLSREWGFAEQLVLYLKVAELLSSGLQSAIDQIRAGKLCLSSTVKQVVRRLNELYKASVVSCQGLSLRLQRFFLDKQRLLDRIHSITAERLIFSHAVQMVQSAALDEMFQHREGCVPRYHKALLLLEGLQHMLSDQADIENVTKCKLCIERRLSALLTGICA
Active and inactive are the calls of the source.
Write down the outcome that applies. Available outcomes: active, inactive

Past entries and their recorded results:
compound=O=C(Nc1nc2cccc(-c3ccc(CN4CCS(=O)(=O)CC4)cc3)n2n1)C1CC1 assigned_category=inactive
compound=Cn1cnc2c(F)c(Nc3ccc(Br)cc3F)c(C(=O)NOCCO)cc21 assigned_category=inactive
compound=CC(C)c1cc(CNc2nc(Nc3cc(C4CC4)[nH]n3)cc(N3CCN(C)CC3)n2)on1 assigned_category=inactive
compound=C#Cc1cccc(Nc2ncnc3cc(OC)c(OCCCCCCC(=O)NO)cc23)c1 assigned_category=inactive
compound=CN1C/C=C/CCOc2cccc(c2)-c2ccnc(n2)Nc2cccc(c2)C1 assigned_category=inactive

Qu. I'd appreciate the recorded outcome for C=CC(=O)Nc1cc2c(Nc3ccc(F)c(Cl)c3)ncnc2cc1C#CC(C)(C)N1CCN(C)CC1 [AV-412 FREE BASE] from this test.
Ans. inactive

Qu. Hi team, can someone confirm the assay call for `NC1(c2ccc(-c3nc4ccn5c(=O)[nH]nc5c4cc3-c3ccccc3)cc2)CCC1` ?
Ans. inactive

Qu. Record lookup: outcome of this test for `CCn1c(C(=O)N(C2CC2)C2CC2)cc2c3c(ncn3C)c(Nc3cc(C)n(C)n3)nc21` ?
Ans. inactive

Qu. Kindly provide the recorded test outcome for the following compound: `Nc1ncnc2c1c(-c1cccc(OCc3ccccc3)c1)cn2[C@H]1C[C@@H](CN2CCC2)C1`
Ans. inactive
